Values were extracted from the RNAGym collection of RNA variant scans (doi:10.7554/elife.80360).

B1: Hairpin Ribozyme (parent)
chain: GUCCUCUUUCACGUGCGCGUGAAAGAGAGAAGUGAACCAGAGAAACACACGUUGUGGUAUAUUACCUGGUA

# Variants of: B1
# ASSAY METHOD TEXT: self-cleavage, relative activity (ratio to wild type); higher = more cleavage; co-transcriptional
MEASUREMENT KIND: self-cleavage

The following variants have reported results that may help.
A24C A45C; 0.235
A39U A61C; 0.187
C48A C50G; 0.0517
A28G U58G; 0.91
G54U C65G; 0.145
G13A U58G; 0.594
A30G C48A; 0.0555
C10A C18U; 0.809

INPUT: Form field: reported self-cleavage of A31U C48U
OUTPUT: 0.109

INPUT: Thanks! And G51U A59C ?
OUTPUT: 0.103

INPUT: Also, C66U G69A please.
OUTPUT: 0.216

INPUT: Check U7G A36U too.
OUTPUT: 0.507

INPUT: Consider next the variant G1U G34C in the same way.
OUTPUT: 0.143
